Target or system: T1, CD22 on cynomolgus monkey peripheral blood B cells (cynomolgus monkey (Macaca fascicularis))
T1 construct: whole, on cells; also called cynomolgus monkey B cells
Assay remarks: FACS, cynomolgus PBMC, CD20+ B cells, antibody 100 nM
Quantity kind: Proportion of chimeric antibody positive cells to B cells (%)
Numbers only, in %.

Example entries begin here.
| Binder | Observed result |
| --- | --- |
| F1.172.13 (antibody, human IgG1, kappa, V domains shown, human-murine chimeric IgG1 kappa) VH: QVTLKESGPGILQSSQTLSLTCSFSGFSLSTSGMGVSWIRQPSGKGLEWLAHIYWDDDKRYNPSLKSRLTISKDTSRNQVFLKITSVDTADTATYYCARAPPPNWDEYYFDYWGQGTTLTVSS VL: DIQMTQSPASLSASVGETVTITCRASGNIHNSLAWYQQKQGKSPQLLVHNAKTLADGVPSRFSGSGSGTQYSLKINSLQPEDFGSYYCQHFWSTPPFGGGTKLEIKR | 34 |
| F1.120.15 (antibody, human IgG1, kappa, V domains shown, human-murine chimeric IgG1 kappa) VH: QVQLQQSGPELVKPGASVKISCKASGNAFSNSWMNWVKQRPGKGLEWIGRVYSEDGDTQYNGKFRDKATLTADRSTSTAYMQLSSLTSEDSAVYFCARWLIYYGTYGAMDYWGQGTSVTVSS VL: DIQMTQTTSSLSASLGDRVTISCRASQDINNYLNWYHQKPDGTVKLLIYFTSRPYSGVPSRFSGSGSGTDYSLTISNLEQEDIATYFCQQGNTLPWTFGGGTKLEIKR | 93 |
| F2.205.9 (antibody, human IgG1, lambda, V domains shown, human-murine chimeric IgG1 lambda; VL name legible) VH: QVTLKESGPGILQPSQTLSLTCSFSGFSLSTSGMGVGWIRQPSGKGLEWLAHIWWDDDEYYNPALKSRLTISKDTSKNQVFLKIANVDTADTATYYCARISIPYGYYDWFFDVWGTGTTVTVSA VL: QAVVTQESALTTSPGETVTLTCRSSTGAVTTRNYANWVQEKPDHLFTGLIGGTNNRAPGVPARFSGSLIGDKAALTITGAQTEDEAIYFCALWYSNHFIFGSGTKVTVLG | 46 |
| F1.280.1 (antibody, human IgG1, kappa, V domains shown, human-murine chimeric IgG1 kappa) VH: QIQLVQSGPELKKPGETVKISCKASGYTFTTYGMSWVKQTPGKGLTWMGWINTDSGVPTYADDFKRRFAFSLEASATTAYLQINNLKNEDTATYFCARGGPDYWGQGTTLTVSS VL: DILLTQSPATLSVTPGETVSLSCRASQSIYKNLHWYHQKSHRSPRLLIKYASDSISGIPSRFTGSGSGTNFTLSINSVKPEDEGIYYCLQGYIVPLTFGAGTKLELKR | 35 |

Next item in the queue.
Ask: Item under review: F1.231.15 (antibody, IgG1, V domains shown, human-murine chimeric IgG1 kappa) VH: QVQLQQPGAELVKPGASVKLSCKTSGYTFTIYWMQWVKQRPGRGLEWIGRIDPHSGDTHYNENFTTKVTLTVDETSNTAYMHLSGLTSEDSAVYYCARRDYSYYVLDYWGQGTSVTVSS VL: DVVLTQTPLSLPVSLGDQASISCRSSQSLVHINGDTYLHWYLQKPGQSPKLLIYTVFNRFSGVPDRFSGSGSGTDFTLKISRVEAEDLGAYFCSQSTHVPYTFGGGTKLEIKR . Reported Proportion of chimeric antibody positive cells to B cells (%)?
Reply: 29
